# experiment_description: in vitro
# condition_label: mouse, microsomes, 20 min, 1 μM, pH 7.4

| mol_smiles | units_symbol | Percent Remaining 20 min |
| --- | --- | --- |
| CCN(CC)Cc1c(C(=O)N/N=C/c2ccc(N(CC)CC)cc2O)nnn1-c1nonc1N | % | 8.9 |
| CCCN(CCC)Cc1c(C(=O)N/N=C/c2ccc(N(CC)CC)cc2O)nnn1-c1nonc1N | % | 7.1 |
| CCN(CC)c1ccc(/C=N/NC(=O)c2cc(C)n[nH]2)c(O)c1 | % | 12 |
| CCN(CC)c1ccc(/C=N/NC(=O)Cn2c3ccccc3c(=O)c3ccccc32)c(O)c1 | % | 32 |
| CCN(CC)c1ccc(/C=N/NC(=O)Cn2nnc(-c3ccccc3)n2)c(O)c1 | % | 8.9 |
| CCN(CC)c1ccc(/C=N\NC(=O)c2nnn(-c3nonc3N)c2CN2CCCCCC2)c(O)c1 | % | 1.8 |

###

# experiment_description: in vitro
# condition_label: mouse, microsomes, pH 7.4
// -1 strictly below 300 µL/min/mg in microsomal CLint at 1 μM; 1 otherwise

| mol_smiles | class_name |
| --- | --- |
| CCN(CC)c1ccc(/C=N/NC(=O)Cn2nnc(-c3ccccc3)n2)c(O)c1 | -1 |
| CCCN(CCC)Cc1c(C(=O)N/N=C/c2ccc(N(CC)CC)cc2O)nnn1-c1nonc1N | -1 |
| CCN(CC)c1ccc(/C=N\NC(=O)c2nnn(-c3nonc3N)c2CN2CCCCCC2)c(O)c1 | 1 |
| CCN(CC)c1ccc(/C=N/NC(=O)c2cc(C)n[nH]2)c(O)c1 | -1 |
| CCN(CC)c1ccc(/C=N/NC(=O)Cn2c3ccccc3c(=O)c3ccccc32)c(O)c1 | -1 |

###

# Tested on: HO-N-myc cells
# experiment_description: Secondary filter for Myc specificity: cell growth inhibition, methylene blue staining
# Assay type: cell-based, rat
# condition_label: ID50 in HO-null cells divided by ID50 in HO—N-myc cells

| mol_smiles | system | value_prefix | Myc Index N |
| --- | --- | --- | --- |
| CCOc1cccc(/C=N/NC(=O)CSc2nc3ccccc3[nH]2)c1O | HO-N-myc cells | = | 4.7 |
| COc1ccc(OCC(=O)N/N=C\c2cc(O)c(O)c(Br)c2)c(Br)c1 | HO-N-myc cells | > | 10 |
| O=C(Oc1c(C(=O)Nc2ccc(Cl)c([N+](=O)[O-])c2)ccc2ccccc12)c1ccccc1 | HO-N-myc cells | = | 2.2 |
| c1ccc(-c2nnc(-c3ccccn3)nc2-c2ccccc2)cc1 | HO-N-myc cells | = | 8.1 |

###

# experiment_description: Metabolic stability in human liver microsomes
# condition_label: human, microsomes, pH 7.4
// reported half-life at 1 µM per item

| molecule | units_symbol | value_prefix | half-life at 1 µM |
| --- | --- | --- | --- |
| C[C@]12CC[C@H]3[C@@H](CCC4=CC(=O)CC[C@@]43C)[C@@H]1CC[C@@H]2O [Testosterone, testosterone, reference compound] | min | = | 23.9 |
| CCN(CC)c1ccc(/C=N/NC(=O)Cn2c3ccccc3c(=O)c3ccccc32)c(O)c1 | min | > | 60 |
| CCCN(CCC)Cc1c(C(=O)N/N=C/c2ccc(N(CC)CC)cc2O)nnn1-c1nonc1N | min | = | 10.7 |
| CCN(CC)c1ccc(/C=N\NC(=O)c2nnn(-c3nonc3N)c2CN2CCCCCC2)c(O)c1 | min | = | 16 |
| CCN(CC)c1ccc(/C=N/NC(=O)c2cc(C)n[nH]2)c(O)c1 | min | = | 29.5 |
| CCN(CC)Cc1c(C(=O)N/N=C/c2ccc(N(CC)CC)cc2O)nnn1-c1nonc1N | min | = | 11.5 |
| CCN(CC)c1ccc(/C=N/NC(=O)Cn2nnc(-c3ccccc3)n2)c(O)c1 | min | = | 13.1 |

###

# experiment_description: in vitro
# condition_label: human, microsomes, 1 h, 1 μM, pH 7.4
// reported Percent Remaining 60 min per item
property_name: Percent Remaining 60 min (%)

| molecule | property_name | value_prefix | assay_result |
| --- | --- | --- | --- |
| CCN(CC)c1ccc(/C=N/NC(=O)Cn2nnc(-c3ccccc3)n2)c(O)c1 [Compound N77A7] | Percent Remaining 60 min | < | 1.0 |
| CCN(CC)Cc1c(C(=O)N/N=C/c2ccc(N(CC)CC)cc2O)nnn1-c1nonc1N [Compound 6] | Percent Remaining 60 min | = | 6.9 |
| CCN(CC)c1ccc(/C=N\NC(=O)c2nnn(-c3nonc3N)c2CN2CCCCCC2)c(O)c1 [Compound 4] | Percent Remaining 60 min | = | 20 |
| CCCN(CCC)Cc1c(C(=O)N/N=C/c2ccc(N(CC)CC)cc2O)nnn1-c1nonc1N [Compound 7] | Percent Remaining 60 min | = | 11 |
| CCN(CC)c1ccc(/C=N/NC(=O)Cn2c3ccccc3c(=O)c3ccccc32)c(O)c1 [Compound 2] | Percent Remaining 60 min | = | 74 |
| CCN(CC)c1ccc(/C=N/NC(=O)c2cc(C)n[nH]2)c(O)c1 [Compound 3] | Percent Remaining 60 min | = | 24 |

###

# experiment_description: in vitro
# condition_label: mouse, microsomes, 0.5 h, 1 μM, pH 7.4
Note to self: Percent Remaining 30 min under 4% means criterion met, ties and anything higher get criterion not met.

| mol_smiles | class_name |
| --- | --- |
| CCN(CC)Cc1c(C(=O)N/N=C/c2ccc(N(CC)CC)cc2O)nnn1-c1nonc1N | criterion not met |
| CCCN(CCC)Cc1c(C(=O)N/N=C/c2ccc(N(CC)CC)cc2O)nnn1-c1nonc1N | criterion met |
| CCN(CC)c1ccc(/C=N/NC(=O)Cn2c3ccccc3c(=O)c3ccccc32)c(O)c1 | criterion not met |
| CCN(CC)c1ccc(/C=N/NC(=O)c2cc(C)n[nH]2)c(O)c1 | criterion met |
| CCN(CC)c1ccc(/C=N\NC(=O)c2nnn(-c3nonc3N)c2CN2CCCCCC2)c(O)c1 | criterion met |
| CCN(CC)c1ccc(/C=N/NC(=O)Cn2nnc(-c3ccccc3)n2)c(O)c1 | criterion not met |

###

# experiment_description: in vitro
# condition_label: human, microsomes, 0.5 h, 1 μM, pH 7.4

| mol_smiles | units_symbol | Percent Remaining 30 min |
| --- | --- | --- |
| CCN(CC)c1ccc(/C=N/NC(=O)c2cc(C)n[nH]2)c(O)c1 | % | 49 |
| CCCN(CCC)Cc1c(C(=O)N/N=C/c2ccc(N(CC)CC)cc2O)nnn1-c1nonc1N | % | 20 |
| CCN(CC)c1ccc(/C=N/NC(=O)Cn2c3ccccc3c(=O)c3ccccc32)c(O)c1 | % | 83 |
| CCN(CC)Cc1c(C(=O)N/N=C/c2ccc(N(CC)CC)cc2O)nnn1-c1nonc1N | % | 18 |
| CCN(CC)c1ccc(/C=N\NC(=O)c2nnn(-c3nonc3N)c2CN2CCCCCC2)c(O)c1 | % | 28 |

###

# experiment_description: in vitro
# condition_label: mouse, microsomes, pH 7.4
property_name: half-life at 1 µM (min)

| compound | property_name | units_symbol | assay_result |
| --- | --- | --- | --- |
| CCCN(CCC)Cc1c(C(=O)N/N=C/c2ccc(N(CC)CC)cc2O)nnn1-c1nonc1N | half-life at 1 µM | min | 5.2 |
| CCN(CC)c1ccc(/C=N/NC(=O)c2cc(C)n[nH]2)c(O)c1 | half-life at 1 µM | min | 7 |
| C[C@]12CC[C@H]3[C@@H](CCC4=CC(=O)CC[C@@]43C)[C@@H]1CC[C@@H]2O [Testosterone, testosterone, reference compound] | half-life at 1 µM | min | 4.2 |
| CCN(CC)c1ccc(/C=N/NC(=O)Cn2c3ccccc3c(=O)c3ccccc32)c(O)c1 | half-life at 1 µM | min | 13.5 |
| CCN(CC)c1ccc(/C=N/NC(=O)Cn2nnc(-c3ccccc3)n2)c(O)c1 | half-life at 1 µM | min | 5.2 |
| CCN(CC)Cc1c(C(=O)N/N=C/c2ccc(N(CC)CC)cc2O)nnn1-c1nonc1N | half-life at 1 µM | min | 4.6 |
| CCN(CC)c1ccc(/C=N\NC(=O)c2nnn(-c3nonc3N)c2CN2CCCCCC2)c(O)c1 | half-life at 1 µM | min | 2 |

###

# experiment_description: in vitro
# condition_label: human, microsomes, pH 7.4
// Criterion not met strictly below 100 µL/min/mg in microsomal CLint at 1 μM; Criterion met otherwise

| compound | class_name |
| --- | --- |
| CCN(CC)c1ccc(/C=N/NC(=O)Cn2nnc(-c3ccccc3)n2)c(O)c1 [Compound N77A7] | Criterion met |
| CCN(CC)Cc1c(C(=O)N/N=C/c2ccc(N(CC)CC)cc2O)nnn1-c1nonc1N [Compound 6] | Criterion met |
| CCCN(CCC)Cc1c(C(=O)N/N=C/c2ccc(N(CC)CC)cc2O)nnn1-c1nonc1N [Compound 7] | Criterion met |
| CCN(CC)c1ccc(/C=N\NC(=O)c2nnn(-c3nonc3N)c2CN2CCCCCC2)c(O)c1 [Compound 4] | Criterion not met |
| CCN(CC)c1ccc(/C=N/NC(=O)Cn2c3ccccc3c(=O)c3ccccc32)c(O)c1 [Compound 2] | Criterion not met |
| CCN(CC)c1ccc(/C=N/NC(=O)c2cc(C)n[nH]2)c(O)c1 [Compound 3] | Criterion not met |
